Target: Adra2b (gene 24174) (UniProt P19328)
Sequence (P19328 whole entry, looked up): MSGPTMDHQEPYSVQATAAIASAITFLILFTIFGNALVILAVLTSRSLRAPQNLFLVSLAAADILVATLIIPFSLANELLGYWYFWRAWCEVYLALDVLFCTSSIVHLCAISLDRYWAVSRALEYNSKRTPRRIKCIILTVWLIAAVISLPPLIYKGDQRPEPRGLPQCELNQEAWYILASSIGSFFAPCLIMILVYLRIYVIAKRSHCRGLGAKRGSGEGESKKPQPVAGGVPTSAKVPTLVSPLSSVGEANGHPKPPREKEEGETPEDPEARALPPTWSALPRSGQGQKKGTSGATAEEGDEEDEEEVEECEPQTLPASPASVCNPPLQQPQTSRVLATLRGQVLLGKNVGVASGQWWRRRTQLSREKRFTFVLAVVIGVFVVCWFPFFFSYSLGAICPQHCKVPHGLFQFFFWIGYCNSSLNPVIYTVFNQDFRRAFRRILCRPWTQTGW
Test: NVS_GPCR_rmAdra2B: NovaScreen (NVS) G Protein-Coupled Receptor Assay for hybird cells Adrenergic, Alpha 2B Receptor (Adra2B) (AID 2283306)
Procedure: NVS_GPCR_rmAdra2B is a biochemical, single-readout assay that uses extracted gene-proteins from neuroglioma/blastoma hybrid cells in a tissue-based cell-free assay. Measurements were taken 1 hour after chemical dosing in a 48-well plate.NVS_GPCR_rmAdra2B is one of one assay component(s) measured or calculated from the NVS_GPCR_rmAdra2B assay. […] Furthermore, this assay endpoint can be referred to as a primary readout, because the performed assay has only produced 1 assay endpoint. […]
Inconclusive results are not listed. Active and inactive are the calls of the source. The calls were made as follows: active = hit-call score of the fitted dose curve at least 0.9, where 1 is the maximum; inconclusive = response in the unintended direction; inactive = score below 0.9.
Pick from true (1) for active, false (0) for inactive when you respond.

For this compound, state the assay outcome: Clc1cc(Cl)c2c(c1)N=C1CCCCCN1C2
true (1)

For this compound, state the assay outcome: CCCCCCCCCCCC[N+](C)(C)C
true (1)

For this compound, state the assay outcome: NCc1cccc(C2CCN(C(=O)c3ccc(C#Cc4ccccc4F)o3)CC2)c1
true (1)

For this compound, state the assay outcome: COc1cccc([C@H](O)C2CCN(CCc3ccc(F)cc3)CC2)c1OC
true (1)

For this compound, state the assay outcome: CCN(Cc1cccnc1)C(=O)c1cccc(Cl)c1[C@]1(C)C(=O)N(Cc2ccc(OC)cc2OC)c2ccc(Cl)cc21
true (1)

For this compound, state the assay outcome: CN(C)C(=O)C1(N2CCCCC2)CCN(CC[C@@]2(c3ccc(Cl)c(Cl)c3)CN(C(=O)c3ccccc3)CCO2)CC1
true (1)

For this compound, state the assay outcome: c1ccc(C[n+]2cccc3ccccc32)cc1
true (1)

For this compound, state the assay outcome: Cc1occc1C(=O)Nc1ccc(C(=O)N2CCC(F)(F)/C(=C\C(=O)N3CCC(N4CCCCC4)CC3)c3ccccc32)cc1
true (1)

For this compound, state the assay outcome: O=C1c2ccccc2C(=O)N1CCc1noc(-c2ccc(CN3CCCCCC3)s2)n1
true (1)

For this compound, state the assay outcome: CN(C)c1ccc(C(=C2C=CC(=[N+](C)C)C=C2)c2ccc(N(C)C)cc2)cc1
true (1)

For this compound, state the assay outcome: O=C1CCC(C2CCCCC2)CC1
false (0)

---

Experiment: TOX21_p53_BLA_p4_viability: Viability Assessment in the Tox21 HCT-116 p53 Agonism Beta-lactamase Assay, Phase 4 (AID 2283597);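 also: hits lower the luminescence signal meaning cytotoxicity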
Results filed as inconclusive are left out. Calls of active or inactive are those of the source. How the source made its calls: active means hit-call score of the fitted dose curve at least 0.9, where 1 is the maximum; inconclusive means response in the unintended direction; inactive means score below 0.9.

MOLECULE | AC50
CC[C@H](NC(=O)c1cc(F)ccc1NS(=O)(=O)c1cccc2cccnc12)c1ccccc1 | inactive
OC12N=C(c3ccccc3)SC1Cc1cc(Cl)ccc12 (centres undefined) | 66.6 µM (active)
COc1ccc2cc(S(=O)(=O)N[C@H](CC(=O)N[C@H](Cc3ccc(CN4[C@H](C)CCC[C@@H]4C)cc3)C(=O)N(C)C(C)C)c3ccc4c(c3)OCO4)ccc2c1 | 60.6 µM (active)
Cc1ccc2oc(CN(Cc3ccccc3)C(=O)Nc3c(F)cc(F)cc3F)c(-c3ccc(Cl)cc3)c2c1 | inactive

---

Read-out: MYC, MYC (gene 4609)
Test: LTEA_HepaRG_MYC: Life Technologies and Expression Analysis (LTEA) Assay for MYC using HepaRG (AID 2283518)
Conditions: mRNA level, 48 h; actives raise or lower the signal
Activity calls are given as the source filed them. The calls were made as follows: active = hit-call score of the fitted dose curve at least 0.9, where 1 is the maximum; inactive = score below 0.9.
Pick from active, inactive when you respond.

For this compound, state the assay outcome: CCCCCCCCCC(=O)O
inactive

For this compound, state the assay outcome: C[C@]12CC[C@@H]3c4ccc(O)cc4CC[C@H]3[C@@H]1CCC2=O
inactive

For this compound, state the assay outcome: Cc1ncc(CO)c(CO)c1O
inactive

For this compound, state the assay outcome: CC(C)(C)c1csc(-c2cc3cc(OCc4ccccc4CC(=O)O)ccc3o2)n1
active

For this compound, state the assay outcome: O=C1CCC(C2CCCCC2)CC1
inactive

For this compound, state the assay outcome: CCN(Cc1cccnc1)C(=O)c1cccc(Cl)c1[C@]1(C)C(=O)N(Cc2ccc(OC)cc2OC)c2ccc(Cl)cc21
active

For this compound, state the assay outcome: CC[C@H](NC(=O)c1cc(F)ccc1NS(=O)(=O)c1cccc2cccnc12)c1ccccc1
inactive

For this compound, state the assay outcome: CCCC(=O)OCCC(C)C
inactive

For this compound, state the assay outcome: O=C(O)Cc1cc(I)c(Oc2ccc(O)c(I)c2)c(I)c1
active

For this compound, state the assay outcome: O=C(O)c1ccccc1C(=O)OCc1ccccc1
inactive

For this compound, state the assay outcome: CC[C@@H]1C[C@H](N(Cc2cc(C(F)(F)F)cc(C(F)(F)F)c2)C(C)=O)c2cc(C(F)(F)F)ccc2N1C(=O)OC(C)C
inactive

---

Assay: BSK_3C_Vis: BioMAP Diversity Plus: 3C Assay for Morphology Visualization (AID 2283025);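 also: fitted both ways so gain or loss versus DMSO counts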
Conditions: primary human endothelial cells (HUVEC)
The source made the active and inactive calls. How the source made its calls: active means hit-call score of the fitted dose curve at least 0.9, where 1 is the maximum; inactive means score below 0.9.
Pick from true for active, false for inactive when you respond.

For this molecule, state the assay outcome: C[C@]12CC[C@@H]3c4ccc(O)cc4CC[C@H]3[C@@H]1CC[C@H]2O
true

For this molecule, state the assay outcome: CC1(C)NC(=O)N(c2ccc([N+](=O)[O-])c(C(F)(F)F)c2)C1=O
false

For this molecule, state the assay outcome: Cc1occc1C(=O)Nc1ccc(C(=O)N2CCC(F)(F)/C(=C\C(=O)N3CCC(N4CCCCC4)CC3)c3ccccc32)cc1
false

For this molecule, state the assay outcome: O=C(OCCCCCCOC(=O)c1ccccc1)c1ccccc1
false

For this molecule, state the assay outcome: OC12N=C(c3ccccc3)SC1Cc1cc(Cl)ccc12 (stereo not given)
false

---

Read-out: MicroRNA 122 (MIR122), gene 406906
Assay: LTEA_HepaRG_MIR122: Life Technologies and Expression Analysis (LTEA) Assay for MicroRNA 122 (MIR122) using HepaRG (AID 2283516); also: the transcript read is the microRNA miR-122
Conditions: mRNA level, 48 h; actives raise or lower the signal
Calls of active or inactive are those of the source. Rule for the calls: active = hit-call score of the fitted dose curve at least 0.9, where 1 is the maximum; inactive = score below 0.9.
Pick from active, inactive when you respond.

For this compound, state the assay outcome: CCCCCCCCOc1ccc(C(=O)c2ccccc2)c(O)c1
inactive

For this compound, state the assay outcome: OCCO
inactive

For this compound, state the assay outcome: CCCCOC(=O)c1ccc(O)cc1
inactive

For this compound, state the assay outcome: OC12N=C(c3ccccc3)SC1Cc1cc(Cl)ccc12 (stereo not given)
active

For this compound, state the assay outcome: CCCCCCCCN(C)CCCCCCCC
inactive

For this compound, state the assay outcome: Clc1cc(Cl)c2c(c1)N=C1CCCCCN1C2
inactive

For this compound, state the assay outcome: CC1=CC(=O)/C(=C(/C)O)C(=O)O1
inactive

For this compound, state the assay outcome: CCN(CC)C(=O)c1cc(S(=O)(=O)Cc2ccccc2)c(N2CCC(c3ccccc3)CC2)cc1N(CC)CCN(C)C
active

For this compound, state the assay outcome: CN1C(=O)N(c2ccccc2Br)Cc2cnc(Nc3ccc4c(c3)OCC(CO)O4)nc21 (stereo not given)
active

For this compound, state the assay outcome: O=c1[nH]sc2ccccc12
inactive

For this compound, state the assay outcome: O=c1c(-c2ccc(O)cc2)coc2cc(O)cc(O)c12
inactive

For this compound, state the assay outcome: NC(=O)c1nc(-c2cccc(-c3cc(F)ccc3OCC(F)(F)C(F)(F)F)c2)n[nH]1
inactive

For this compound, state the assay outcome: O=C1c2ccccc2C(=O)N1CCc1noc(-c2ccc(CN3CCCCCC3)s2)n1
inactive

For this compound, state the assay outcome: CCCCCCCCCCCO
inactive

For this compound, state the assay outcome: O=C=NCCCCCCN=C=O
inactive

For this compound, state the assay outcome: O=C(O)c1ccccc1C(=O)OCc1ccccc1
inactive

For this compound, state the assay outcome: COc1cccc([C@H](O)C2CCN(CCc3ccc(F)cc3)CC2)c1OC
inactive

For this compound, state the assay outcome: O=c1ccc2ccccc2o1
inactive

For this compound, state the assay outcome: Oc1ccc2ccccc2c1
inactive

For this compound, state the assay outcome: Cc1c2ccccc2c(C)c2c1ccc1ccccc12
active

For this compound, state the assay outcome: CCN(Cc1cccc(S(=O)(=O)O)c1)c1ccc(C(=C2C=CC(=[N+](CC)Cc3cccc(S(=O)(=O)O)c3)C=C2)c2ccccc2S(=O)(=O)[O-])cc1
inactive

For this compound, state the assay outcome: CC(=O)N1CCN(c2ccc(OC[C@H]3CO[C@](Cn4ccnc4)(c4ccc(Cl)cc4Cl)O3)cc2)CC1
active

For this compound, state the assay outcome: CN(C)c1ccc(C(=C2C=CC(=[N+](C)C)C=C2)c2ccc(N(C)C)cc2)cc1
active

For this compound, state the assay outcome: Cc1cccc2ccccc12
inactive

For this compound, state the assay outcome: CCCCCCCCOC(=O)c1cc(O)c(O)c(O)c1
inactive

---

Assay: Tanguay_ZF_120hpf_JAW_legacy: (Legacy) Oregon State University Tanguay Lab 120 Hour Post-fertilization zebrafish Assay for Jaw Malformation (AID 2283638)
Results filed as inconclusive are left out. Activity calls are given as the source filed them. How the source made its calls: active means hit-call score of the fitted dose curve at least 0.9, where 1 is the maximum; inconclusive means response in the unintended direction; inactive means score below 0.9.
Pick from Y = active, N = inactive when you respond.

For this molecule, state the assay outcome: CO[C@H]1/C=C/O[C@@]2(C)Oc3c(C)c(O)c4c(O)c(c(/C=N/N5CCN(C)CC5)c(O)c4c3C2=O)NC(=O)/C(C)=C\C=C\[C@H](C)[C@H](O)[C@@H](C)[C@@H](O)[C@@H](C)[C@H](OC(C)=O)[C@@H]1C
N

For this molecule, state the assay outcome: OCCO
N

For this molecule, state the assay outcome: CC(O)CC(C)(C)O (centres undefined)
N

For this molecule, state the assay outcome: O=C1CCC(C2CCCCC2)CC1
N

For this molecule, state the assay outcome: CC(C)(O)c1ccc(CNC(=O)c2cccnc2Oc2ccc3nonc3c2)cc1
N

For this molecule, state the assay outcome: CC(C)(C)c1csc(-c2cc3cc(OCc4ccccc4CC(=O)O)ccc3o2)n1
N

For this molecule, state the assay outcome: COCC(C)OCC(C)OCC(C)O (centres undefined)
N

For this molecule, state the assay outcome: CCCOC(=O)c1cc(O)c(O)c(O)c1
N

For this molecule, state the assay outcome: Cc1occc1C(=O)Nc1ccc(C(=O)N2CCC(F)(F)/C(=C\C(=O)N3CCC(N4CCCCC4)CC3)c3ccccc32)cc1
N

For this molecule, state the assay outcome: CCCCCCCC[Si](OCC)(OCC)OCC
N

For this molecule, state the assay outcome: CCN(Cc1cccc(S(=O)(=O)O)c1)c1ccc(C(=C2C=CC(=[N+](CC)Cc3cccc(S(=O)(=O)O)c3)C=C2)c2ccccc2S(=O)(=O)[O-])cc1
N

For this molecule, state the assay outcome: CCCCCCCCOc1ccc(C(=O)c2ccccc2)c(O)c1
N

For this molecule, state the assay outcome: Oc1ccccc1
N

For this molecule, state the assay outcome: Cc1ccc2oc(CN(Cc3ccccc3)C(=O)Nc3c(F)cc(F)cc3F)c(-c3ccc(Cl)cc3)c2c1
N

For this molecule, state the assay outcome: O=CCCCC=O
N

For this molecule, state the assay outcome: O=C1c2ccccc2C(=O)N1CCc1noc(-c2ccc(CN3CCCCCC3)s2)n1
N

For this molecule, state the assay outcome: CCN(CC)C(=O)c1cc(S(=O)(=O)Cc2ccccc2)c(N2CCC(c3ccccc3)CC2)cc1N(CC)CCN(C)C
N

For this molecule, state the assay outcome: O=C(O)Cn1c(=O)n(Cc2ccc(Br)cc2F)c(=O)c2ccc(Cl)cc21
N

For this molecule, state the assay outcome: CCCCCCCCCCCCO
N

For this molecule, state the assay outcome: c1ccc2ccccc2c1
N

For this molecule, state the assay outcome: O=C(Nc1ccc(Cl)cc1)Nc1ccc(Cl)c(Cl)c1
N

For this molecule, state the assay outcome: CCN(Cc1cccnc1)C(=O)c1cccc(Cl)c1[C@]1(C)C(=O)N(Cc2ccc(OC)cc2OC)c2ccc(Cl)cc21
N

For this molecule, state the assay outcome: CCCCOC(=O)CC(CC(=O)OCCCC)(OC(C)=O)C(=O)OCCCC
N

For this molecule, state the assay outcome: OC12N=C(c3ccccc3)SC1Cc1cc(Cl)ccc12 (centres undefined)
Y

For this molecule, state the assay outcome: C[C@]12CC[C@@H]3c4ccc(O)cc4CC[C@H]3[C@@H]1CCC2=O
N

For this molecule, state the assay outcome: C[C@]12CC[C@@H]3c4ccc(O)cc4CC[C@H]3[C@@H]1CC[C@H]2O
N

For this molecule, state the assay outcome: Cc1cc2c(cc1C(F)(F)F)N(C(=O)Nc1ccc(Oc3cccnc3C)nc1)CC2
N

For this molecule, state the assay outcome: CCCCCCCCCC(=O)O
N

For this molecule, state the assay outcome: Clc1ccccc1C(c1ccccc1)(c1ccccc1)n1ccnc1
Y
